Molecular target: T1, human TREM2 on BWZ cells (human, UniProt Q9NZC2 19-230)
T1 construct: whole, on cells; not tied to the cell line; also called BWZ Human TREM2
T1 sequence (looked up): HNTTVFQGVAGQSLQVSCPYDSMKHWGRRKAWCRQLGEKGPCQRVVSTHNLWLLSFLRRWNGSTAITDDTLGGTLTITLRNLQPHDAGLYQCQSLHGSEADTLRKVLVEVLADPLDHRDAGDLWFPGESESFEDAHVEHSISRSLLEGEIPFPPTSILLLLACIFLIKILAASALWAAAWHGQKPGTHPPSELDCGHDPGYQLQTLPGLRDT
Experiment: FACS, BWZ cells
readout_label: binding result

T1-37 (antibody, IgG1, V domains shown, huIgG1; also called TI-37; ADI-19111) VH: QVQLVESGGGVVQPGRSLRLSCAASGFTFSSYGMHWVRQAPGKGLEWVALIWYDGSNKYYADSVKGRFTISRDNSKNTLYLQMNSLRAEDTAVYYCAKGDYLDPLFDYWGQGTLVTVSS VL: EIVMTQSPATLSVSPGERATLSCRASQSVSSNLAWYQQKPGQAPRLLIYGASTRATGIPARFSGSGSGTEFTLTISSLQSEDFAVYYCQQYAYWPLTFGGGTKVEIK    no binding
T1-4 (antibody, IgG1, V domains shown, huIgG1; also called TI-4; ADI-19070) VH: QVQLVQSGAEVKKPGSSVKVSCKASGGTFSSYAISWVRQAPGQGLEWMGGIIPIFGTANYAQKFQGRVTITADESTSTAYMELSSLRSEDTAVYYCARHYYYGYAYFDLWGRGTLVTVSS VL: EIVMTQSPATLSVSPGERATLSCRASQSVSSNLAWYQQKPGQAPRLLIYGASTRATGIPARFSGSGSGTEFTLTISSLQSEDFAVYYCQQFNNHPITFGGGTKVEIK    no binding
T1-69 (antibody, IgG1, V domains shown, huIgG1; also called TI-69; ADI-19145) VH: QVQLVQSGAEVKKPGASVKVSCKASGYTFTSYGISWVRQAPGQGLEWMGWISAYNGNTNYAQKLQGRVTMTTDTSTSTAYMELRSLRSDDTAVYYCARGAGMYDGSPLGMDVWGQGTTVTVSS VL: DIQMTQSPSSVSASVGDRVTITCRASQGISSWLAWYQQKPGKAPKLLIYAASNLQSGVPSRFSGSGSGTDFTLTISSLQPEDFATYYCQQATAHPPTFGGGTKVEIK    no binding
